Target: T1, DLG3_3, Q92796
T1 sequence (Q92796 374-475, limits assumed, looked up): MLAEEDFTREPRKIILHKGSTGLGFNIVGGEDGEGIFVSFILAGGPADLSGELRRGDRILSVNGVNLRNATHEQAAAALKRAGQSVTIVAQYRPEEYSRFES
Experiment: holdup assay
Parameters: key: below the threshold = too weak to quantify, mostly under pKd 3.1 to 4
Conditions: plain residues with an end cap or a label only (N-terminal biotin on a linker: ttds)
quantity: pKd
The response must contain the number and no unit.

Here's what some known entries look like.
- PKRPFVESNV [TANC2, Q9HCD6]: 3.67
- QFQYAKESYI [TAGAP, Q8N103]: 3.57
- DPRNTQTSQI [ABRAXAS2, Q15018]: 3.66
- SEKHFRETEV [HTLV1-TAX1, P03409]: 5.34

Specify measured pKd for LCALPKVTTV [AGMAT, Q9BSE5] .
4.47

Specify measured pKd for RTRQRNETQV [HPV51-E6, P26554] .
4.91

Specify measured pKd for VNKVWDQSSV [CIT, O14578] .
3.7

Specify measured pKd for LDSQIQETSI [MAP4, P27816] .
3.78
